Literature compilation of IC50 measurements on CRBN-DDB1 (Homo sapiens).

Compound	Result Modifier	IC50 / nM
CC(C)(C)c1ccc(NC(=O)NCc2ccc3c(c2)C(=O)N(C2CCC(=O)NC2=O)C3)cc1 (stereo not shown)	=	434
O=C1CCC(N2Cc3ccc(CNC(=O)Nc4cncs4)cc3C2=O)C(=O)N1 (stereo not shown)	=	272
CC(C)(C)OC(=O)NCCCCCCCC#Cc1ccc(Oc2cccc3c2C(=O)NC(=O)C3)cc1	>	100000
O=C1CCC(c2c(F)cc(N3CC(OC(=O)NC4CC5(CCC5)C4)C3)cc2F)C(=O)N1 (stereo not shown)	≤	100
Cc1cnc(NC(=O)NCc2ccc3c(c2)C(=O)N(C2CCC(=O)NC2=O)C3)s1 (stereo not shown)	=	253
NC(=O)c1ccc2c(c1)C(=O)NC(=O)C2	>	100000
O=C1CCC(c2c(F)cc(N3CC(NC(=O)Nc4cccc(OC(F)F)c4)C3)cc2F)C(=O)N1 (stereo not shown)	≤	100
Cc1c(Cl)cc(NC(=O)NCc2ccc3c(c2)C(=O)N(C2CCC(=O)NC2=O)C3)cc1OC(F)(F)F (stereo not shown)	=	3590
CC(C)(C)OC(=O)NCCCCCCCCCc1cccc(Oc2cccc3c2C(=O)NC(=O)C3)c1	>	100000
O=C1CCC(N2Cc3ccc(CNC(=O)NCCCc4ccccc4)cc3C2=O)C(=O)N1 (stereo not shown)	=	253
Cc1nccn1-c1cccc(NC(=O)NCc2ccc3c(c2)C(=O)N(C2CCC(=O)NC2=O)C3)c1 (stereo not shown)	=	283
Cc1c(Cl)cc(NC(=O)NCc2ccc3c(c2)C(=O)N(C2CCC(=O)NC2=O)C3)cc1C12CC1CN(C)C2 (stereo not shown)	=	581
Cc1ccc(NC(=O)NCc2ccc3c(c2)C(=O)N(C2CCC(=O)NC2=O)C3)c(C)c1Cl (stereo not shown)	=	248
